- TEST SYSTEM: PNCK Nano-luciferase fusion (Homo sapiens)
- Construct: host or cells: HEK293
- TEST NAME: NanoBRET Target Engagement Intracellular Kinase Assay, cell-based PNCK binding screen and dose response in HEK293 cells
- MEASUREMENT SETUP: compound 1uM; HEK293; K10 tracer 1uM; normalized to staurosporine and DMSO; read-out: Avg. Normalized % Inhibition, 1uM, Nanobret
REPORTED ENDPOINT: inhibition at 1 µM (%)
Reply with just the number (in %).

The reported inhibition at 1 µM of the molecule Cc1nc(N2CCC[C@H]3C(=O)NC[C@H]32)c2c(C)c(C)sc2n1 was 1.43

The reported inhibition at 1 µM of the molecule O=c1[nH]c2ccccc2n2c(SCCCn3c(=O)[nH]c4ccccc43)nnc12 was 29

The reported inhibition at 1 µM of the molecule COc1ccccc1CNc1ncnc2sc(C(=O)O)c(C)c12 was 0

The reported inhibition at 1 µM of the molecule O=C1CNC(=O)N1CCCOc1ccc2c3c(c(=O)oc2c1)CCCCC3 was 27.9

The reported inhibition at 1 µM of the molecule CC1(C)CCc2c(sc(NC(=O)c3ccc(Cl)s3)c2C(N)=O)C1 was 4.8

###

- TEST SYSTEM: PNCK Nano-luciferase fusion (Homo sapiens, UniProt Q6P2M8)
- Construct: host or cells: HEK293
- Sequence (Q6P2M8 whole entry, the tested form may be a part): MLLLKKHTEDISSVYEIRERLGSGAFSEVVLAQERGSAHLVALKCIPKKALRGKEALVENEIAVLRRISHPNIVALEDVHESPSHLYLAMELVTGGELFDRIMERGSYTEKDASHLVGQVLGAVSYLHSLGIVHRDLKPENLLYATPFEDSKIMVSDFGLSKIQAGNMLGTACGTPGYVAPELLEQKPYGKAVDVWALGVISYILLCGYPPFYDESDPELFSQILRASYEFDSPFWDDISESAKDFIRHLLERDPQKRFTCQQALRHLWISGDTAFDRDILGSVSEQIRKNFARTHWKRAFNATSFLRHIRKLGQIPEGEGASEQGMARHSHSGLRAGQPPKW
- TEST NAME: NanoBRET Target Engagement Intracellular Kinase Assay, cell-based PNCK binding screen and dose response in HEK293 cells
- MEASUREMENT SETUP: compound 10uM; HEK293; K10 tracer 1uM; normalized to staurosporine and DMSO; read-out: Avg. Normalized % Inhibition, 10uM, Nanobret
REPORTED ENDPOINT: inhibition at 10 µM
Field: value (include unit after the number)

{"COMPOUND": "COc1cccc(-c2nc3c(c(=O)[nH]2)Cc2cc(Br)ccc2O3)c1O", "TEST SYSTEM": "PNCK Nano-luciferase fusion (Homo sapiens, UniProt Q6P2M8)", "inhibition at 10 µM": "54%"}
{"COMPOUND": "Cc1ccccc1CN1CCC(CNc2ncnc3sc(C(=O)O)c(C)c23)CC1", "TEST SYSTEM": "PNCK Nano-luciferase fusion (Homo sapiens, UniProt Q6P2M8)", "inhibition at 10 µM": "23%"}

PNCK Nano-luciferase fusion (Homo sapiens, UniProt Q6P2M8) inhibition at 10 µM of Cc1nc2c3ccccc3nc(SCCCn3c(=O)[nH]c4ccccc43)n2n1 is 68.6%

PNCK Nano-luciferase fusion (Homo sapiens, UniProt Q6P2M8) inhibition at 10 µM of Cn1cnnc1SCc1nc(N)c2c3c(sc2n1)CCCC3 is 62.3%

PNCK Nano-luciferase fusion (Homo sapiens, UniProt Q6P2M8) inhibition at 10 µM of Cn1c(=O)n(C(N)=O)c(=O)c2c1nc1n2CCCN1c1ccc(F)cc1 is 44.6%

PNCK Nano-luciferase fusion (Homo sapiens, UniProt Q6P2M8) inhibition at 10 µM of COc1ccc2c(O)c(C(=O)N(C)Cc3c(C)noc3C)cnc2c1 is 17.7%

PNCK Nano-luciferase fusion (Homo sapiens, UniProt Q6P2M8) inhibition at 10 µM of Clc1nc(-c2cccnc2)nc2sc3c(c12)CCCC3 is 55.3%

PNCK Nano-luciferase fusion (Homo sapiens, UniProt Q6P2M8) inhibition at 10 µM of O=C(c1c(F)cc(F)cc1F)C1CCN(C(=O)c2ccnnc2)CC1 is 49.9%

Taken from paper PMC10249896.
